All figures here come from PubChem BioAssay AID2728.

Collected growth inhibition values appear next to each entry.
# method.summary: V. harveyi growth suppression by OD600 – strain BB721, absorbance OD600, cytotoxicity control for AI-2 quorum sensing inhibitors, confirmation (AID 2728)
# experimental.conditions: Vibrio harveyi BB721 growth, 9 h, at 7.5 µM, active compounds read high
The other results are listed elsewhere or left out. Records with an inconclusive call do not appear.

>  <structure.string>
O=C(Nc1ccc(F)c(Cl)c1)C1CCN(S(=O)(=O)c2cccnc2)CC1

>  <growth inhibition / %>
14.5

$$$$
>  <structure.string>
O=C(COC(=O)C1CCCCC1)Nc1ccc([N+](=O)[O-])cc1

>  <growth inhibition / %>
-40.8

$$$$
>  <structure.string>
Cc1ccsc1C(=O)OCC(=O)c1cc2ccccc2o1

>  <growth inhibition / %>
4.04

$$$$
>  <structure.string>
Cc1ccccc1NC(=O)CCOc1ccccc1

>  <growth inhibition / %>
-7.16

$$$$
>  <structure.string>
O=C(/C=C/c1ccc2c(c1)OCO2)NCc1ccc(F)cc1

>  <growth inhibition / %>
16.5

$$$$
>  <structure.string>
Cc1cccc(CSc2ccc(-c3cccs3)nn2)c1

>  <growth inhibition / %>
-12.7

$$$$
>  <structure.string>
O=C(Cn1cnc2ccccc2c1=O)Nc1cccc(S(=O)(=O)N2CCCCC2)c1

>  <growth inhibition / %>
14

$$$$
>  <structure.string>
O=C(c1cc(-c2cccc(O)c2)on1)N1CCc2ccccc2C1

>  <growth inhibition / %>
2.13

$$$$
>  <structure.string>
Cc1ccc(Cc2nc(-c3cccc(C)c3)no2)cc1

>  <growth inhibition / %>
19.7

$$$$
>  <structure.string>
O=C(COc1ncnc2ccccc12)NC(=O)NCc1ccccc1

>  <growth inhibition / %>
27.2

$$$$
>  <structure.string>
S=C(NCc1ccc(Cl)cc1)NC1CCCCC1

>  <growth inhibition / %>
12.8

$$$$
>  <structure.string>
COc1cccc(NC(=O)NCc2ccc(F)cc2)c1

>  <growth inhibition / %>
-16.1

$$$$
>  <structure.string>
CC(C)(C)c1ccc(OC2=CS(=O)(=O)c3ccccc32)cc1

>  <growth inhibition / %>
26.8

$$$$
>  <structure.string>
Cc1nn(CC(=O)Nc2ccc(F)cc2)c(=O)c2ccccc12

>  <growth inhibition / %>
0.351

$$$$
>  <structure.string>
CCOC(=O)c1nn(-c2cccc(C)c2)cc1C(=O)c1ccccc1

>  <growth inhibition / %>
-7.63

$$$$
>  <structure.string>
COC(=O)c1ccc(SCc2ccccc2)nc1

>  <growth inhibition / %>
-21

$$$$
